The values you see were collected from patent US6221637A.

# tested.target: binding of B7-1 to CD28 (Homo sapiens, UniProt P10747+P33681)
# Construct: ligating the Fc region of human IgG to the C-terminal side of the extracellular region of B7-1; Fc region of human IgG (from plasmid pTB1455); expressed in transfected cells; soluble B7-1-Ig made in house by sB7-1-Ig-CHO-20 and purified from its supernatant
# Sequence (P10747 19-220): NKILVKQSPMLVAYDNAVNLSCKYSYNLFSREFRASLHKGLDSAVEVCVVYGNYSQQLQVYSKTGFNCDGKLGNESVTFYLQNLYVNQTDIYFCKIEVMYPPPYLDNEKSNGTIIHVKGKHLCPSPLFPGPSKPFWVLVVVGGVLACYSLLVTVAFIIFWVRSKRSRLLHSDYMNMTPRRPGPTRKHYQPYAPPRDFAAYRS
# Sequence (P33681 with tags, fused parts or gaps): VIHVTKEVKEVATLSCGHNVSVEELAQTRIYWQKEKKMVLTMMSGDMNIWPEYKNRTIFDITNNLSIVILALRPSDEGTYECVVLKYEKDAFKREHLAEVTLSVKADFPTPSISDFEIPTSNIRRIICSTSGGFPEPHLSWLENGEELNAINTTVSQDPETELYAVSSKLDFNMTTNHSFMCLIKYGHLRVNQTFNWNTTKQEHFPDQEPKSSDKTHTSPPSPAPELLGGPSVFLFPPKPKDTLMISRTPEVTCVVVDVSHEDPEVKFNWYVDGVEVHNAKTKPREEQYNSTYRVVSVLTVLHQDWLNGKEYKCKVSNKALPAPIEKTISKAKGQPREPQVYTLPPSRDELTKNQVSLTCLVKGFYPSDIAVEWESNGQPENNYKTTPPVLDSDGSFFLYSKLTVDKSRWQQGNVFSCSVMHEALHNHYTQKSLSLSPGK
# measurement.notes: Binding inhibition test using soluble B7-1-Ig
# measurement.setup: 10 μg/ml soluble B7-1-Ig; fixed CD28-expressing CHO cells; 30 minutes at room temperature; read-out: IC50 (concentration for 50% inhibition of binding) (converted)
endpoint: IC50

*Q* Item COC(=O)c1c([S+]([O-])CC(=O)O)c(O)c(I)c2oc3c(Cl)c(C)c(Cl)c(O)c3c(=O)c12 (stereo not drawn) with binding of B7-1 to CD28 (Homo sapiens, UniProt P10747+P33681) - IC50?
*A* < 166 nM

*Q* Provide value of IC50 for this record tested with binding of B7-1 to CD28 (Homo sapiens, UniProt P10747+P33681): "CCC(=O)Oc1c(Cl)c(C)c(Cl)c2oc3cc(O)c(SCC(=O)O)c(C(=O)OC)c3c(=O)c12"
*A* < 194 nM

Consider the additional compound presented here.
*Q* Record lookup: for binding of B7-1 to CD28 (Homo sapiens, UniProt P10747+P33681), what IC50 belongs to COC(=O)c1c([S+]([O-])CC(=O)O)c(O)cc2oc3c(Cl)c(C)c(Cl)c(O)c3c(=O)c12 (stereo not drawn) ?
*A* < 210 nM
